- studyTarget: Aurora kinase B (Homo sapiens)
- Sequence (Q96GD4 whole entry): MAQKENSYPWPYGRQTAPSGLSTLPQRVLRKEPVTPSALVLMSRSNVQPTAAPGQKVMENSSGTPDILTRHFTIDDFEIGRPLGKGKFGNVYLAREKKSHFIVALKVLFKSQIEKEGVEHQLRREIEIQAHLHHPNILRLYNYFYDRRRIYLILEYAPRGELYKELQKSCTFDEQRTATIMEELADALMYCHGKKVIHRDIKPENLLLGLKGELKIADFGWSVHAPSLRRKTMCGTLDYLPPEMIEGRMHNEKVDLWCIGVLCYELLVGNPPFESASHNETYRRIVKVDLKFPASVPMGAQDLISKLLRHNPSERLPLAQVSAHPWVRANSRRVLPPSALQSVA
- assayDetails: Inhibition of N-terminal Myc tagged aurora-B (unknown origin)-mediated histone H3 phosphorylation at S10 after 2 hrs
measurementType: pIC50
pIC50 here is simply -log10 of the concentration when that concentration is written in mol/L.

Prompt: Fill in pIC50 for record `Cc1nn(C)cc1-c1nc2c(Nc3ccc(C(=O)Nc4ccccc4)cc3)c(Cl)cnc2[nH]1`
Completion: 4.73
